Tested on: HepG2 cells
Test: Cytotoxicity on HepG2 cell line (CellTiter 96)
Format: cell-based, human
Conditions: Homo sapiens, HepG2, 24 h, read-out: IC50 HepG2
result_type: pIC50
Quick note: pIC50 means taking -log10 of the concentration in moles per liter.

smiles_record=CCCCCCCCCNC(=O)NNC(=O)c1cc([N+](=O)[O-])cc([N+](=O)[O-])c1 recorded_result=3.90
smiles_record=CCCCCCCCNC(=O)NNC(=O)c1cc([N+](=O)[O-])cc([N+](=O)[O-])c1 recorded_result=3.87
smiles_record=CCCCCCNC(=O)NNC(=O)c1cc([N+](=O)[O-])cc([N+](=O)[O-])c1 recorded_result=3.92
smiles_record=CCCCCCCCCCNC(=O)NNC(=O)c1cc([N+](=O)[O-])cc([N+](=O)[O-])c1 recorded_result=3.85
smiles_record=CCCCCNC(=O)NNC(=O)c1cc([N+](=O)[O-])cc([N+](=O)[O-])c1 recorded_result=3.87

Task: Report pIC50 for CCCCNC(=O)NNC(=O)c1cc([N+](=O)[O-])cc([N+](=O)[O-])c1 tested on HepG2 cells.
Output: 3.70

Task: # query: pIC50 | item CCCCCCCCCCCCCCNC(=O)NNC(=O)c1cc([N+](=O)[O-])cc([N+](=O)[O-])c1 | system: HepG2 cells
Output: 3.68

Task: # query: pIC50 | item CCCCCCCCCCCCCNC(=O)NNC(=O)c1cc([N+](=O)[O-])cc([N+](=O)[O-])c1 | system: HepG2 cells
Output: 3.79

Task: Param readout = pIC50; param system = HepG2 cells; param query = CCCCCCCCCCCCNC(=O)NNC(=O)c1cc([N+](=O)[O-])cc([N+](=O)[O-])c1 ; response: value
Output: 3.78

Task: For the record CCCCCCCNC(=O)NNC(=O)c1cc([N+](=O)[O-])cc([N+](=O)[O-])c1 , what value of pIC50 is listed for HepG2 cells?
Output: 3.93
